Target: T1, monkey GFRα3 expressed with a C-terminal myc-myc-hexahistidine tag (monkey (Mf), UniProt O60609 32-374 (human entry), limits assumed)
T1 construct: also called MfGFRα3-mmh; MfGFRα3-mmH
T1 chain: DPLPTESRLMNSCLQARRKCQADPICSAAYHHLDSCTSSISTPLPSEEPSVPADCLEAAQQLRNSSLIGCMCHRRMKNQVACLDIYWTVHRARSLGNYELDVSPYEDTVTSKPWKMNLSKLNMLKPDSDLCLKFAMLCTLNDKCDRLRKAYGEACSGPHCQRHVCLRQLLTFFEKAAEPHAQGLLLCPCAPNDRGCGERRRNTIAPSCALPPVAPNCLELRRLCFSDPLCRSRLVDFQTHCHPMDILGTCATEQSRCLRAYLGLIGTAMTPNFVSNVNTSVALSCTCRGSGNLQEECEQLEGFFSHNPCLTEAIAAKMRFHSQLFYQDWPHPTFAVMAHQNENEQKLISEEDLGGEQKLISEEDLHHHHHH
Test: SPR, Ab captured, 25C
PROPERTY: t1/2 (h)
State the answer as a number, implicitly in h.

H4H2292S (antibody, human IgG4, V domains shown, human IgG4 Fc (H4H)) VH: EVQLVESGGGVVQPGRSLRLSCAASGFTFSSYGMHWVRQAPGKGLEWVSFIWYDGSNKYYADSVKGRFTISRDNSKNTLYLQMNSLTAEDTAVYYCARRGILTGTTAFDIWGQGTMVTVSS VL: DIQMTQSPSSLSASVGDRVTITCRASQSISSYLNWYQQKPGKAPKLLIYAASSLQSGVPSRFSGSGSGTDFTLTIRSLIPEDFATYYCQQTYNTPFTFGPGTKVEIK: 1.58

Input H4H2291S (antibody, human IgG4, V domains shown, human IgG4 Fc (H4H)) VH: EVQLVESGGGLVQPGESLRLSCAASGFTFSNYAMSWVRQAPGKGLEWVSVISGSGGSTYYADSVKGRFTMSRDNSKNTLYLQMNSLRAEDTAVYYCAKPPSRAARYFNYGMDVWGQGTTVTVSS VL: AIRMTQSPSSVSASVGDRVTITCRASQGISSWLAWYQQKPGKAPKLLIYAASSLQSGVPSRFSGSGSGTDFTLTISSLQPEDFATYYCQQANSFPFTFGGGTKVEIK . Output t1/2: 0.683
